Reported DC50 by item:
# TARGET DESC: RET (658-1114) (Homo sapiens)
# Construct: 658-1114; expressed in transfected cells; host or cells: 293T.144 (293T cells, generated in-house)
# Sequence (P07949 658-1114): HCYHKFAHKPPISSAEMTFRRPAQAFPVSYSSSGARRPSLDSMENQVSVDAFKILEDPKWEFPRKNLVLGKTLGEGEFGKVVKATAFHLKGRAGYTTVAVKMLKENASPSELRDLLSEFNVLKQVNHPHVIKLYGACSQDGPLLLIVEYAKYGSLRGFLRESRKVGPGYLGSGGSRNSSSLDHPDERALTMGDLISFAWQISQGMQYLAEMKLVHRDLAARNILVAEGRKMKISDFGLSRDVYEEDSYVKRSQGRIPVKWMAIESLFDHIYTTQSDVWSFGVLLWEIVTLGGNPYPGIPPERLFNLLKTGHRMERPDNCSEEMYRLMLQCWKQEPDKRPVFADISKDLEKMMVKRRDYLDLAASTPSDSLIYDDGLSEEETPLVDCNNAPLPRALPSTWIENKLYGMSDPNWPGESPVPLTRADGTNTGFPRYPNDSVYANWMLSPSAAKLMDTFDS
# ASSAY REMARKS: HiBiT-Degradation, RET wild-type degradation assay (Nano-Glo HiBiT Lytic), 293T.144 cells
# Assay type: cell-based
# MEASUREMENT CONDITIONS: RET wild-type, 6.0 hours, read-out: HiBiT-Degradation 293T.144 RET (658-1114) 6.0 hours (DC50)

{"COMPOUND": "COc1ccnc(CN2C3CC2CN(c2ccc(-c4cc(-c5cnn(C6CCN(C(=O)CN7CCC(c8ccc(NC9CCC(=O)NC9=O)cc8F)CC7)CC6)c5)cn5ncc(C#N)c45)cn2)C3)c1 (stereo not drawn) [Compound 71]", "TARGET DESC": "RET (658-1114) (Homo sapiens)", "DC50": "< 50 nM"}
{"COMPOUND": "N#Cc1cnn2cc(-c3cnn(C4CC5(C4)CN(C(=O)CN4CCC(c6ccc(NC7CCC(=O)NC7=O)cc6F)CC4)C5)c3)cc(-c3ccc(N4CCN(Cc5ccccn5)CC4)nc3)c12 (stereo not drawn) [Compound 76]", "TARGET DESC": "RET (658-1114) (Homo sapiens)", "DC50": "< 50 nM"}

Now look at this one.
Prompt: Please look up its DC50: CCC1(C(=O)NC(C)C)CCN(c2ccc(-c3nc(-c4cnn(C5CCN(C(=O)CC6(O)CCN(c7ccc(NC8CCC(=O)NC8=O)c(F)c7)CC6)CC5)c4)cn4ncc(C#N)c34)cn2)CC1 (stereo not drawn) [Compound 69]
Response: < 50 nM
